These measurements were taken from patent US10221129B2.

CC50 overview
# System: uninfected MT2 cells
# method_notes: Compound cytotoxicity, XTT-based colorimetric assay
# Format: cell-based
# test_conditions: day 4, XTT

compound: CC1Cc2cccnc2N1S(=O)(=O)NC(=O)N[C@@H](Cc1cc(F)cc(F)c1)C(=O)N(C)c1ccc2scnc2c1 (single isomer, unassigned)
CC50: > 1 µM
--
compound: COc1ccc(N(C)C(=O)[C@H](Cc2ccccc2)NC(=O)NS(=O)(=O)NCc2n[nH]c3ccccc23)cc1
CC50: > 100 µM
--
compound: CC1CCc2ccccc2N1S(=O)(=O)NC(=O)N[C@@H](Cc1cc(F)cc(F)c1)C(=O)N(C)c1ccc2scnc2c1 (single isomer, unassigned) [VN-11]
CC50: 93.5 µM
--
compound: CN(C)C(=O)C1Cc2cccnc2N1S(=O)(=O)NC(=O)N[C@@H](Cc1cc(F)cc(F)c1)C(=O)N(C)c1ccc2scnc2c1 (single isomer, unassigned)
CC50: > 100 µM
--
compound: CC1CCc2ccccc2N1S(=O)(=O)NC(=O)N[C@@H](Cc1cc(F)cc(F)c1)C(=O)N(C)c1ccc2scnc2c1 (single isomer, unassigned) [VN-10]
CC50: > 33.3 µM
--
compound: CN(C(=O)[C@H](Cc1cc(F)cc(F)c1)NC(=O)NS(=O)(=O)N1CCc2cncnc21)c1ccc2scnc2c1
CC50: 70.5 µM
--
compound: CN(C(=O)[C@H](Cc1cc(F)cc(F)c1)NC(=O)NS(=O)(=O)N1CCCC1c1ccccc1)c1ccc2scnc2c1 (single isomer, unassigned)
CC50: 57.5 µM
--
compound: CC1CN(S(=O)(=O)NC(=O)N[C@@H](Cc2cc(F)cc(F)c2)C(=O)N(C)c2ccc3scnc3c2)c2ncccc21 (single isomer, unassigned)
CC50: > 100 µM
--
compound: CN(C(=O)[C@H](Cc1cc(F)cc(F)c1)NC(=O)NS(=O)(=O)N1CCCC1c1ccccn1)c1ccc2scnc2c1 (single isomer, unassigned)
CC50: > 100 µM
--
compound: CN(C(=O)[C@H](Cc1cc(F)cc(F)c1)NC(=O)NS(=O)(=O)n1ccc2cncnc21)c1ccc2scnc2c1
CC50: > 100 µM

====

# method_notes: Compound cytotoxicity, XTT-based colorimetric assay
# Assay type: cell-based
# test_conditions: human, uninfected MT2 cells, day 4, XTT
CC50 at 4 days overview

compound: COc1ccc(N(C)C(=O)[C@H](Cc2ccccc2)NC(=O)NS(=O)(=O)Nc2ccccc2Oc2ccccc2)cc1
CC50 at 4 days: > 33.3 µM
--
compound: CN(C(=O)[C@H](Cc1cc(F)cc(F)c1)NC(=O)NS(=O)(=O)N1CC[C@@H](O)C1)c1ccc2scnc2c1
CC50 at 4 days: > 100 µM
--
compound: COc1ccc(N(C)C(=O)[C@H](Cc2ccccc2)NC(=O)NS(=O)(=O)Nc2cc(Cl)cc(Cl)c2)cc1
CC50 at 4 days: > 33.3 µM
--
compound: CN(C(=O)[C@H](Cc1cc(F)cc(F)c1)NC(=O)NS(=O)(=O)N1CCNC(=O)C1)c1ccc2scnc2c1
CC50 at 4 days: > 100 µM
--
compound: COc1ccc(N(C)C(=O)[C@H](Cc2ccccc2)NC(=O)NS(=O)(=O)Nc2ccc(C)c(C)c2)cc1
CC50 at 4 days: > 100 µM
--
compound: COc1ccc(N(C)C(=O)[C@H](Cc2ccccc2)NC(=O)NS(=O)(=O)N(C)C)cc1
CC50 at 4 days: > 100 µM
--
compound: COc1ccc(N(C)C(=O)[C@H](Cc2ccccc2)NC(=O)NS(=O)(=O)NCC(=O)N(C)C)cc1
CC50 at 4 days: > 100 µM
--
compound: COc1ccc(N(C)C(=O)[C@H](Cc2ccccc2)NC(=O)NS(=O)(=O)n2c(C)cc3ccncc32)cc1
CC50 at 4 days: > 100 µM
--
compound: CCN(c1ccccc1)S(=O)(=O)NC(=O)N[C@@H](Cc1cc(F)cc(F)c1)C(=O)N(C)c1ccc2scnc2c1
CC50 at 4 days: > 100 µM
--
compound: CN(C(=O)[C@H](Cc1cc(F)cc(F)c1)NC(=O)NS(=O)(=O)N1CCC(Cc2ccccc2)CC1)c1ccc2scnc2c1
CC50 at 4 days: 86.4 µM
--
compound: CN(C(=O)[C@H](Cc1cc(F)cc(F)c1)NC(=O)NS(=O)(=O)N1CCCC1c1ccccc1)c1ccc2scnc2c1 (single isomer, unassigned)
CC50 at 4 days: 52.4 µM
--
compound: COc1ccc(N(C)C(=O)[C@H](Cc2ccccc2)NC(=O)NS(=O)(=O)n2ccc3cccnc32)cc1
CC50 at 4 days: > 100 µM
--
compound: COc1ccc(N(C)C(=O)[C@H](Cc2ccccc2)NC(=O)NS(=O)(=O)Nc2cccc(C#N)c2)cc1
CC50 at 4 days: > 100 µM
--
compound: CN(C(=O)[C@H](Cc1cc(F)cc(F)c1)NC(=O)NS(=O)(=O)N1CCc2ccncc21)c1ccc2scnc2c1
CC50 at 4 days: > 100 µM
--
compound: CN(C(=O)[C@H](Cc1cc(F)cc(F)c1)NC(=O)NS(=O)(=O)N1CCc2cccnc21)c1ccc2scnc2c1F
CC50 at 4 days: > 100 µM

====

# method_notes: Compound cytotoxicity, XTT-based colorimetric assay
# Assay type: cell-based
# test_conditions: human, uninfected MT2 cells, day 4, XTT
assay_endpoint: CC50 at 4 days

sample_smiles: COc1ccc(N(C)C(=O)[C@H](Cc2ccccc2)NC(=O)NS(=O)(=O)n2ccc3ccncc32)cc1
assay_endpoint: CC50 at 4 days
measurement: > 100 µM
//
sample_smiles: COc1ccc(N(C)C(=O)[C@H](Cc2ccccc2)NC(=O)NS(=O)(=O)N2CCc3cc(Cl)cc(Cl)c32)cc1
assay_endpoint: CC50 at 4 days
measurement: > 100 µM
//
sample_smiles: CN(C(=O)[C@H](Cc1cc(F)cc(F)c1)NC(=O)NS(=O)(=O)N1CCC(O)CC1)c1ccc2scnc2c1
assay_endpoint: CC50 at 4 days
measurement: > 100 µM
//
sample_smiles: COc1ccc(N(C)C(=O)[C@H](Cc2cc(F)cc(F)c2)NC(=O)NS(=O)(=O)N2CCc3ccncc32)cc1
assay_endpoint: CC50 at 4 days
measurement: > 100 µM
//
sample_smiles: COc1ccc(N(C)C(=O)[C@H](Cc2ccccc2)NC(=O)NS(=O)(=O)Nc2ccc(-c3ccccc3)cc2)cc1
assay_endpoint: CC50 at 4 days
measurement: > 33.3 µM
//
sample_smiles: COc1ccc(N(C)C(=O)[C@H](Cc2cc(F)cc(F)c2)NC(=O)NS(=O)(=O)N2CCCCC2)cc1F
assay_endpoint: CC50 at 4 days
measurement: > 100 µM
//
sample_smiles: O=C(N[C@@H](Cc1cc(F)cc(F)c1)C(=O)N(CCOCc1ccccc1)c1ccc2scnc2c1)NS(=O)(=O)N1CCc2cccnc21
assay_endpoint: CC50 at 4 days
measurement: 70.6 µM
//
sample_smiles: COc1ccc(N(C)C(=O)[C@H](Cc2ccccc2)NC(=O)NS(=O)(=O)NCc2cccc(-n3cccn3)c2)cc1
assay_endpoint: CC50 at 4 days
measurement: > 100 µM
//
sample_smiles: CCN(C)S(=O)(=O)NC(=O)N[C@@H](Cc1cc(F)cc(F)c1)C(=O)N(C)c1ccc2scnc2c1
assay_endpoint: CC50 at 4 days
measurement: > 50 µM
//
sample_smiles: CC(C)CNS(=O)(=O)NC(=O)N[C@@H](Cc1cc(F)cc(F)c1)C(=O)N(C)c1ccc2scnc2c1
assay_endpoint: CC50 at 4 days
measurement: > 100 µM
//
sample_smiles: CN(C(=O)[C@H](Cc1cc(F)cc(F)c1)NC(=O)NS(=O)(=O)N(C)C)c1ccc(OC(F)F)cc1
assay_endpoint: CC50 at 4 days
measurement: > 100 µM
//
sample_smiles: CN(C(=O)[C@H](Cc1cc(F)cc(F)c1)NC(=O)NS(=O)(=O)N1CCc2cccnc21)c1ccc(OC(F)(F)F)cc1
assay_endpoint: CC50 at 4 days
measurement: 16.8 µM
//
sample_smiles: CN(C(=O)[C@H](Cc1cc(F)cc(F)c1)NC(=O)NS(=O)(=O)N1CCc2cc(Br)cnc21)c1ccc2scnc2c1
assay_endpoint: CC50 at 4 days
measurement: > 100 µM
//
sample_smiles: COc1ccc(N(C)C(=O)[C@H](Cc2cc(F)cc(F)c2)NC(=O)NS(=O)(=O)N2CCc3cccnc32)cc1
assay_endpoint: CC50 at 4 days
measurement: > 33.3 µM
//
sample_smiles: COc1ccc(N(C)C(=O)[C@H](Cc2ccccc2)NC(=O)NS(=O)(=O)Nc2ccc3ccccc3c2)cc1
assay_endpoint: CC50 at 4 days
measurement: > 33.3 µM
//
sample_smiles: COc1ccc(N(C)C(=O)[C@H](Cc2ccccc2)NC(=O)NS(=O)(=O)Nc2ccc(Cl)cc2)cc1
assay_endpoint: CC50 at 4 days
measurement: > 100 µM
//
sample_smiles: COc1ccc(N(C)C(=O)[C@H](Cc2ccccc2)NC(=O)NS(=O)(=O)Nc2ccc(Br)cc2)cc1
assay_endpoint: CC50 at 4 days
measurement: > 100 µM
//
sample_smiles: COc1ccc(N(C)C(=O)[C@H](Cc2ccccc2)NC(=O)NS(=O)(=O)Nc2ccc(C(F)(F)F)cc2)cc1
assay_endpoint: CC50 at 4 days
measurement: > 100 µM
//
sample_smiles: CN(C(=O)[C@H](Cc1cc(F)cc(F)c1)NC(=O)NS(=O)(=O)N1CCc2cccnc21)c1ccc(N2CCOCC2)cc1
assay_endpoint: CC50 at 4 days
measurement: 68.1 µM
//
sample_smiles: COc1ccc(N(C)C(=O)[C@H](Cc2ccccc2)NC(=O)NS(=O)(=O)NCC(=O)N2CCOCC2)cc1
assay_endpoint: CC50 at 4 days
measurement: > 100 µM
//
sample_smiles: COc1ccc(N(C)C(=O)[C@H](Cc2ccccc2)NC(=O)NS(=O)(=O)Nc2cccc(Cl)c2Cl)cc1
assay_endpoint: CC50 at 4 days
measurement: > 100 µM
//
sample_smiles: Cc1ccc(NS(=O)(=O)NC(=O)N[C@@H](Cc2cc(F)cc(F)c2)C(=O)N(C)c2ccc3scnc3c2)cc1
assay_endpoint: CC50 at 4 days
measurement: > 100 µM
//
sample_smiles: COc1ccc(N(C)C(=O)[C@H](Cc2ccccc2)NC(=O)NS(=O)(=O)Nc2ccccc2C#N)cc1
assay_endpoint: CC50 at 4 days
measurement: > 100 µM
//
sample_smiles: CN(C(=O)[C@H](Cc1cc(F)cc(F)c1)NC(=O)NS(=O)(=O)N1CCOCC1)c1ccc2scnc2c1
assay_endpoint: CC50 at 4 days
measurement: > 100 µM
//
sample_smiles: COc1ccc(N(C)C(=O)[C@H](Cc2ccccc2)NC(=O)NS(=O)(=O)NCc2cncn2C)cc1
assay_endpoint: CC50 at 4 days
measurement: > 100 µM
//
sample_smiles: COc1ccc(N(C)C(=O)[C@H](Cc2ccccc2)NC(=O)NS(=O)(=O)Nc2ccc3ncsc3c2)cc1
assay_endpoint: CC50 at 4 days
measurement: > 100 µM
//
sample_smiles: COc1ccc(N(C)C(=O)[C@H](Cc2ccccc2)NC(=O)NS(=O)(=O)N2CCc3c(Cl)cccc32)cc1
assay_endpoint: CC50 at 4 days
measurement: 21.4 µM
//
sample_smiles: CN(C(=O)[C@H](Cc1ccccc1)NC(=O)NS(=O)(=O)N1CCc2cccnc21)c1ccc2scnc2c1
assay_endpoint: CC50 at 4 days
measurement: > 53 µM
//
sample_smiles: CN(C(=O)[C@H](Cc1cc(F)cc(F)c1)NC(=O)NS(=O)(=O)N1CC(C)(O)C1)c1ccc2scnc2c1
assay_endpoint: CC50 at 4 days
measurement: > 100 µM
//
sample_smiles: COc1ccc(N(C)C(=O)[C@H](Cc2ccccc2)NC(=O)NS(=O)(=O)n2ncc3c(Cl)nc(Cl)cc32)cc1
assay_endpoint: CC50 at 4 days
measurement: > 100 µM
